- testedOn: T1, human IFNAR-1 protein (form not stated) (human, UniProt P17181 28-436, limits assumed)
- T1 construct: bispecific ELISA
- T1 sequence (looked up): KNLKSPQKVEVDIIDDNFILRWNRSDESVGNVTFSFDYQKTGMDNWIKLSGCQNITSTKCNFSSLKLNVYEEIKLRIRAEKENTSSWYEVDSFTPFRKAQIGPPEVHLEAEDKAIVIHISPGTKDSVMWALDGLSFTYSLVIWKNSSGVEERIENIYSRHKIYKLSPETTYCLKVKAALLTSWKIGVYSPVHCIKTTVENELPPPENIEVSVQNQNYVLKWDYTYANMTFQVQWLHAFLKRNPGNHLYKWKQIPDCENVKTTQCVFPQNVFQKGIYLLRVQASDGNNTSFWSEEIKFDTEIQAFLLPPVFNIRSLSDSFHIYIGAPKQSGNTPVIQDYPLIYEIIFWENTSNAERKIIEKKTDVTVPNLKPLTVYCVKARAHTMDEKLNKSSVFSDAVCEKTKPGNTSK
- procedureDetails: affinity ranking of expressed humanized 8G11 IgGs (method not named)
Threshold check on kon: at or above 200000 M⁻¹ s⁻¹ gives true, strictly below gives false.

8G11-H2L2 (antibody, V domains shown, Humanized IgG expressed in HEK293; also called VH2 + VL2 (8G11)) VH: QVQLVQSGAEVVKPGASVKVSCKGSGFNIKDYYMHWVRQAPGQGLEWIGRIDPEDAETKYAPKFQGRVTMTADTSTSTVYMELSSLRSEDTAVYYCARGGNFYVMDYWGQGTLVTVSS VL: DIQLTQSPSFLSTSVGDRVTITCKASQNVGTNVVWYQQKPGKSPKVLIYSASYRVSGVPSRFSGSGSGTEFTLIISSLQPEDFATYYCQQKNNYPYTFGQGTKLEIK	true

IN: Reported kon at or above 200000 M⁻¹ s⁻¹? 8G11 humanized VH1 + VL2 (antibody, V domains shown, Humanized IgG expressed in HEK293; also called VH1 + VL2 (8G11)) VH: QVQLVQSGAEVKKPGASVKVSCKASGFNIKDYYMHWVRQAPGQGLEWMGRIDPEDAETKYAPKFQGRVTMTRDTSTSTVYMELSSLRSEDTAVYYCARGGNFYVMDYWGQGTLVTVSS VL: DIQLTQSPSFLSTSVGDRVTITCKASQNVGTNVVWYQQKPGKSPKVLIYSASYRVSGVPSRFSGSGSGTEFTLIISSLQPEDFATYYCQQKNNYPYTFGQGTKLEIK
OUT: false

IN: Kindly determine if kon recorded for 8G11 humanized VH2 + VL4 (antibody, V domains shown, Humanized IgG expressed in HEK293; also called VH2 + VL4 (8G11)) VH: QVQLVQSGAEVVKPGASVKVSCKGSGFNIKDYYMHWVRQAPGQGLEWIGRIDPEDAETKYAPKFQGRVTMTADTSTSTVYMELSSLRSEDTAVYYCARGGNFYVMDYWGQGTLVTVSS VL: DIQMTQSPSFLSTSVGDRVTVTCKASQNVGTNVVWYQQKPGKSPKVLIYSASYRVSGVPSRFSGSGSGTEFTLIISSVQPEDFATYFCQQKNNYPYTFGQGTKLEIK is above or exactly 200000 M⁻¹ s⁻¹.
OUT: true

IN: Form field: kon at least 200000 M⁻¹ s⁻¹? Entry: 8G11-H1L1 (antibody, V domains shown, Humanized IgG expressed in HEK293; also called VH1 + VL1 (8G11)) VH: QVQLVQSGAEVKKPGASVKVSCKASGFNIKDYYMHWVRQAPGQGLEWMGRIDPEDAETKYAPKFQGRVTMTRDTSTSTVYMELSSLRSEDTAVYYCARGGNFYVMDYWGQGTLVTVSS VL: DIQLTQSPSFLSASVGDRVTITCKASQNVGTNVVWYQQKPGKAPKLLIYSASYRVSGVPSRFSGSGSGTEFTLTISSLQPEDFATYYCQQKNNYPYTFGQGTKLEIK
OUT: false
